Target or system: T1, E-selectin on ES-Endo cells (Tet-on HMVEC) (UniProt P16581 P16581:22-610)
T1 sequence: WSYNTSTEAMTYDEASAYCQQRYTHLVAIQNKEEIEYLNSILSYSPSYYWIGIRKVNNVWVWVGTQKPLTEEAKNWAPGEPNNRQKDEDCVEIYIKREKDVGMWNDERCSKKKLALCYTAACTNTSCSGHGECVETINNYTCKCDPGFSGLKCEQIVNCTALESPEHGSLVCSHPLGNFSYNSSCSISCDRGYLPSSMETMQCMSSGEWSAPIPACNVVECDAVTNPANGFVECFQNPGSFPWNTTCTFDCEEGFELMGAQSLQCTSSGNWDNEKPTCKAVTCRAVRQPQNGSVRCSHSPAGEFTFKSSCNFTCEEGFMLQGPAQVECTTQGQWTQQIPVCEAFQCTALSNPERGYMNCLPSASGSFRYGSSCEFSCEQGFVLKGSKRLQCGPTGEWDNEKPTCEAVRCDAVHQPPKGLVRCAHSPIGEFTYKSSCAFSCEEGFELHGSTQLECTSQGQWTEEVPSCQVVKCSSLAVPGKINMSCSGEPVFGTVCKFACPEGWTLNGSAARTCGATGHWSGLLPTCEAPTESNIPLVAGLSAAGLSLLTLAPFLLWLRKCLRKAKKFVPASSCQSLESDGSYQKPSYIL
Protocol text: cell_activity; inhibition of HL-60 adhesion to ES-Endo, 4 C; 80% at 100 nM
Recorded metric: IC50

INSERT INTO results (binder, result) VALUES
  ('ESTA-1 (TA-1) (ssDNA, 5''-monothiophosphate (Rp) on all dA except in primer-binding region) DNA: CGCTCGGATCGATAAGCTTCGATCCCACTCTCCCGTTCACTTCTCCTCACGTCACGGATCCTCTAGAGCACTG', '~63 nM');
